System: NCI-H292 lung cancer cells
Assay Explanation: FDA drug screening, complete media vs cholesterol-free media without statin (TABLE 1)
Type: cell-based, human
Recorded Conditions: NCI-H292 cells, complete media, FDA drug library screen
Threshold check on Complete: at or above 1 gives YES, strictly below gives NO.

Solved cases below.
{"Molecule": "COC(=O)N[C@H](C(=O)N1CCC[C@H]1c1nc(-c2ccc(-c3ccc(-c4c[nH]c([C@@H]5CCCN5C(=O)[C@@H](NC(=O)OC)C(C)C)n4)cc3)cc2)c[nH]1)C(C)C [Daclatasvir]", "Group Label": "NO"}
{"Molecule": "CC1(C)S[C@@H]2[C@H](NC(=O)[C@H](NC(=O)N3CCN(S(C)(=O)=O)C3=O)c3ccccc3)C(=O)N2[C@H]1C(=O)[O-].[Na+] [Mezlocillin (sodium)]", "Group Label": "YES"}
{"Molecule": "CCCCCCCCCCCCCCCC[n+]1ccccc1.O.[Cl-] [Cetylpyridinium (chloride monohydrate)]", "Group Label": "NO"}

Qu. Evaluate CCOC(=O)C1=C(COCCN)NC(C)=C(C(=O)OC)C1c1ccccc1Cl (stereo not drawn) : Complete at minimum 1?
Ans. YES

Qu. Evaluate CC(C)C(=O)Oc1ccc(CO)cc1[C@H](CCN(C(C)C)C(C)C)c1ccccc1 [Fesoterodine (L-mandelate)] : Complete at minimum 1?
Ans. YES

Qu. Evaluate "Nc1nc(NC2CC2)c2ncn([C@H]3C=C[C@@H](CO)C3)c2n1" : Complete at minimum 1?
Ans. YES

Qu. Evaluate "N#Cc1ccc2[nH]cc(CCCCN3CCN(c4ccc5oc(C(N)=O)cc5c4)CC3)c2c1" : Complete at minimum 1?
Ans. YES

Qu. Evaluate Cc1onc(-c2c(Cl)cccc2Cl)c1C(=O)N[C@@H]1C(=O)N2[C@@H]1SC(C)(C)[C@@H]2C(=O)O [Dicloxacillin (Sodium hydrate)] : Complete at minimum 1?
Ans. NO

====

System: NCI-H292 lung cancer cells
Assay Explanation: FDA drug screening, complete media vs cholesterol-free media with simvastatin (TABLE 2)
Format: cell-based, human
Recorded Conditions: complete media minus cholesterol-free media + simvastatin; >0 enhanced anti-cancer activity, about 0 neutral, <0 antagonist
Where a name gives a salt, the structure may show the parent alone.
Below: a set of entries, each annotated with reported Difference.

Would you please look over these solved cases?
{"Compound": "C[C@@H](c1nc(-c2ccc(C#N)cc2)cs1)[C@](O)(Cn1cncn1)c1cc(F)ccc1F [isavuconazole, reference compound]", "Result Value": 0.40}
{"Compound": "CC(C)(O)c1ccccc1CC[C@@H](SCC1(CC(=O)O)CC1)c1cccc(/C=C/c2ccc3ccc(Cl)cc3n2)c1 [Montelukast (sodium)]", "Result Value": 0.13}
{"Compound": "C[C@@H]1C[C@H]2[C@@H]3CCC4=CC(=O)C=C[C@]4(C)[C@@]3(F)[C@@H](O)C[C@]2(C)[C@@]1(O)C(=O)CO", "Result Value": 0.19}

Qu. Request body: readout Difference, system NCI-H292 lung cancer cells, query CC(Oc1c(Cl)cccc1Cl)C1=NCCN1 (stereo not shown) [Lofexidine (hydrochloride)] . Return the value.
Ans. 0.10

====

Tested on: NCI-H292 lung cancer cells
Assay Explanation: FDA drug screening, complete media vs cholesterol-free media without statin (TABLE 1)
Format: cell-based, human
Recorded Conditions: Complete minus Cholesterol-free; greater than 0 enhanced anti-cancer activity, about 0 neutral, below 0 antagonist
Where a name gives a salt, the structure may show the parent alone.
Measurement Kind: Difference
Please respond with just the number, no unit label.

Qu. Request body: readout Difference, system NCI-H292 lung cancer cells, query CCCC(=O)Nc1ncnc2c1ncn2[C@@H]1O[C@@H]2COP(=O)(O)O[C@H]2[C@H]1OC(=O)CCC [Bucladesine (calcium)] . Return the value.
Ans. −0.13

Qu. Request body: readout Difference, system NCI-H292 lung cancer cells, query O=C1CCCC(=O)C1C(=O)c1ccc(C(F)(F)F)cc1[N+](=O)[O-] [Nitisinone] . Return the value.
Ans. −0.08

Qu. Request body: readout Difference, system NCI-H292 lung cancer cells, query C=CCc1ccccc1OCC(O)CNC(C)C (centres unmarked) [Alprenolol (hydrochloride)] . Return the value.
Ans. −0.15

Qu. Request body: readout Difference, system NCI-H292 lung cancer cells, query Cl.NCCC[C@H](N)C(=O)O [L-Ornithine (hydrochloride)] . Return the value.
Ans. −0.11

Qu. Request body: readout Difference, system NCI-H292 lung cancer cells, query CC1=NN(c2ccccc2)C(=O)C1 [Edaravone] . Return the value.
Ans. −0.18

Qu. Request body: readout Difference, system NCI-H292 lung cancer cells, query CCC(Cc1c(I)cc(I)c(N)c1I)C(=O)O (centres unmarked) [Iopanoic acid] . Return the value.
Ans. −0.10

Qu. Request body: readout Difference, system NCI-H292 lung cancer cells, query CN(C)CC/C=C1/c2ccccc2COc2ccc(CC(=O)O)cc21 [Olopatadine (hydrochloride)] . Return the value.
Ans. −0.13

Qu. Request body: readout Difference, system NCI-H292 lung cancer cells, query CN(C)c1cc(CNCC(C)(C)C)c(O)c2c1C[C@H]1C[C@H]3[C@H](N(C)C)C(O)=C(C(N)=O)C(=O)[C@@]3(O)C(O)=C1C2=O [Omadacycline (hydrochloride)] . Return the value.
Ans. −0.15
